# system: PDE2A3 (580–941) (Homo sapiens, UniProt O00408)
# Sequence (O00408 580-941): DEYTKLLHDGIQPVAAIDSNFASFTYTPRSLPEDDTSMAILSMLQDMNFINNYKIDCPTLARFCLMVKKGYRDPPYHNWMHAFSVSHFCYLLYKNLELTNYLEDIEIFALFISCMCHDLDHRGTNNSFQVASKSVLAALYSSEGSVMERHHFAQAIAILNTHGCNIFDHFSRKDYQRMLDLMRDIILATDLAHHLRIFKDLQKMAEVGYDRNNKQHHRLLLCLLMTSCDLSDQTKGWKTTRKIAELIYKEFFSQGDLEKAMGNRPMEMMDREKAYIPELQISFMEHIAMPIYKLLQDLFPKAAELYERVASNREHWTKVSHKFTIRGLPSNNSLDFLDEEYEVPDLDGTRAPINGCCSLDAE
assay.readout: pIC50
Quick note: pIC50 values are minus log10 of concentrations in mol/L.

[Q] pIC50 for CC(C)CC(=O)c1ccc(OC(F)F)c(O[C@H]2CCOC2)c1 [(S)-Zl-n-91] ?
[A] 4.08

----------
# system: PDE5A1 (535–860) (Homo sapiens)
assay.readout: IC50 (µM)
// note: answer is a bare numeric in µM

[Q] Please provide the recorded IC50 for CC(C)CC(=O)c1ccc(OC(F)F)c(O[C@H]2CCOC2)c1 [(S)-Zl-n-91] , tested on PDE5A1 (535–860) (Homo sapiens).
[A] 130
